Data origin, for the record: the NIST ThermoML archive (doi:10.1021/je0600092)

Measured speed of sound values are reported for all entries that follow.
# condition_set: 293.15 K; 101.33 kPa; Liquid; Light diffraction method
Could you give me the number in m/s? Just the number is fine.

Sample records with speed of sound:
[[record]]
compound = "CCCCn1cc[n+](C)c1.F[B-](F)(F)F [1-butyl-3-methylimidazolium tetrafluoroborate]"
recorded_metric = "speed of sound"
reading = 1564

[[record]]
compound = "CCCCCC[n+]1ccn(C)c1.O=S(=O)([N-]S(=O)(=O)C(F)(F)F)C(F)(F)F"
recorded_metric = "speed of sound"
reading = 1232

[[record]]
compound = "CCCCn1cc[n+](C)c1.F[P-](F)(F)(F)(F)F [1-butyl-3-methylimidazolium hexafluorophosphate]"
recorded_metric = "speed of sound"
reading = 1441

[[record]]
compound = "CCCCCCCCn1cc[n+](C)c1.O=S(=O)([N-]S(=O)(=O)C(F)(F)F)C(F)(F)F"
recorded_metric = "speed of sound"
reading = 1232

[[record]]
compound = "CCn1cc[n+](C)c1.O=S(=O)([N-]S(=O)(=O)C(F)(F)F)C(F)(F)F"
recorded_metric = "speed of sound"
reading = 1240


Query compound follows.
Query block: Quick check: speed of sound of `CCCC[n+]1ccn(C)c1.O=S(=O)([N-]S(=O)(=O)C(F)(F)F)C(F)(F)F` ?
Result block: 1227
